experiment: Half life in Sherman rat plasma; assay type: ADME, cell-free
quantityMeasured: half-life (min)
Field: numeric (min). Do not append units.

Task: For the molecule shown here, CC[C@H](C)[C@@H]1NC(=O)[C@H](Cc2ccc(O)cc2)NC(=O)[C@@H](N)CSSC[C@@H](C(=O)N2CCC[C@H]2C(=O)N[C@@H](CC(C)C)C(=O)NCC(N)=O)NC(=O)[C@H](CC(N)=O)NC(=O)[C@H](CCC(N)=O)NC1=O [OXYTOCIN] , give the reported half-life.
Result: 3
